B1: Histidine--tRNA ligase, cytoplasmic, residues 8 to 45; numbered along this chain, P12081 (parent)
chain: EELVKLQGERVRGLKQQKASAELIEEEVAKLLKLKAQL

Variants of: B1
procedureDetails: abundance fitness (aPCA) (normalised: wild type 0, dead -1); higher = more abundant; growth selection in yeast, the domain comes from the species named
testSettings: Homo sapiens
What abundance fitness was measured for each of the following?

- mutationCode: "E2H"
  assayValue: -0.195
- mutationCode: "L34K"
  assayValue: -0.1
- mutationCode: "E27I"
  assayValue: -1.47
- mutationCode: "L23M"
  assayValue: 0.243

Lab note: each variant below needs its abundance fitness filled in.
1. K5G
2. L14A
3. L6Q
4. L6A
5. Q17L
6. E9Y

Key:
1. -0.407
2. 0.064
3. 0.213
4. 0.194
5. -0.232
6. -0.816

Exercise: Request the reported abundance fitness associated with K18P
Key: 0.004
